assay: P. aeruginosa biofilm formation inhibitors, primary screen, strain PAO1, LB-PBS medium, absorbance 600 nm (AID 1176); also: test concentration not given here; settings: P. aeruginosa PAO1 growth/biofilm, A600, 12 h; higher = more signal
Measured Parameter: z-score
Returns: the value as a bare number; no unit string appended.

| Molecule | Reported Value |
| --- | --- |
| C=CCC(OC(C)=O)[C@@H]1[C@@H](N(Cc2ccc(-c3cccc(C(F)(F)F)c3)o2)C(=O)c2cccc3ccccc23)c2cc(OCCCO)ccc2N1C(=O)c1ccc2ccccc2n1 (stereo partly drawn) | -0.51 |

Given the entry `COc1ccc(CCNC(=O)[C@@]2(C)c3ccccc3C(=O)N(Cc3cc(C(F)(F)F)cc(C(F)(F)F)c3)[C@H]2c2ccc(CO)cc2)cc1` , report its measured z-score.
0.773

Field entry: `COC(=O)[C@@]1(Cc2ccccc2)[C@H]2c3cc(C(=O)N4CCCC4)n(Cc4ccc(C(F)(F)F)nc4)c3C[C@H]2CN1C(=O)c1ccccc1`
-0.374
